Test system: UACC-62 melanoma
test method notes: NCI tumour cell line growth inhibition, 48 h
# key: entry, value: TGI

[ask] Recorded TGI for CC(=O)OCC1OC(n2c3c(cc(C#N)c2=O)CCCCCC3)C(OC(C)=O)C(OC(C)=O)C1OC(C)=O (stereo not drawn) , please?
[reply] > 100 µM

[ask] // next record O=C1NC(=NCc2ccccc2Br)S/C1=C\c1ccc2ncccc2c1
[reply] > 25 µM

[ask] // next record COc1ccc(-c2c(C#N)c(=O)nc(SC)n2C2OCC(OC(C)=O)C(OC(C)=O)C2OC(C)=O)cc1 (stereo not drawn)
[reply] > 100 µM

[ask] // next record COc1cc2c(/C=C3\C(=O)N(C)c4ccc(O)cc43)c[nH]c2cc1C
[reply] 30.3 µM

---

System: HL-60(TB) leukemia
test method notes: NCI tumour cell line growth inhibition, 48 h
# key: entry, value: TGI

1. CC(OC(C)(C)C)[C@H](NC(=O)OCc1ccccc1)C(=O)NC(OCc1ccccc1)[C@H]1COC(C)(C)O1 (stereo not given in full) = > 10 µM
2. O=S(=O)(O)c1cc(N=Nc2cccc3ccccc23)c(O)c2ncccc12 = > 100 µM
3. Cc1nc(-c2nc(C)c(C(=O)/C=C/c3ccc([N+](=O)[O-])cc3)s2)sc1C(=O)/C=C/c1ccc([N+](=O)[O-])cc1 = > 100 µM
4. O=[N+]([O-])/C(C(Cl)=C(Cl)Cl)=C1\NCCS1 = 48.3 µM

Now take the following compound into account.
[ask] Recorded TGI for C=CCNCCN1C(=O)c2ccc3c4c(ccc(c24)C1=O)C(=O)N(CCNCC=C)C3=O , please?
[reply] 2.21 µM

---

System: NCI-H23 lung
test method notes: NCI tumour cell line growth inhibition, 48 h
value kind: GI50

1. O=C1C=CC=C[C@@H]2C(C3OCCO3)CC[C@H]12.[C-]#[O+].[C-]#[O+].[C-]#[O+].[Fe] (some centres undefined) = > 52.8 µM
2. Cn1cc(C2=C(Oc3ccccc3)C(=O)NC2=O)c2ccccc21 = > 25 µM
3. O=C(/C=C/c1cccs1)c1ccc(Cl)cc1Cl = 17.1 µM
4. Cc1ncc(C(=O)Nc2ccc(CN3CCN(C)CC3)c(C(F)(F)F)c2)cc1C#Cc1c(N)ncc2ccc(F)cc12 = 0.596 µM

Now take the following compound into account.
[ask] Recorded GI50 for COc1cc(-c2cc(/C=C3\C(=O)Nc4cc(Cl)ccc43)[nH]n2)cc(OC)c1OC , please?
[reply] 3.84 µM

---

# key: entry, value: GI50
Tested on: SR leukemia
test method notes: NCI tumour cell line growth inhibition, 48 h

Illustrative cases are given below, each with its answer.
1. N[C@H]1C[C@@H]1c1ccc(-c2cccc(O)c2)cc1 = 24700 nM
2. COc1ccc(C2C(C#N)=C(N)Oc3c2sc2c(F)cccc32)cc1 (stereo not drawn) = 706 nM

Now take the following compound into account.
[ask] Recorded GI50 for Clc1ccc(Nc2nnc(CNc3ccccc3)c3ccccc23)cc1 , please?
[reply] 1750 nM

---

Test system: HT29 colon
test method notes: NCI tumour cell line growth inhibition, 48 h
value kind: TGI

1. COc1cccc(CC2C(=O)N=C(NC(C)=O)N2C)c1OC(C)=O (stereo not given) = > 100 µM
2. Clc1nc(Cl)c2ncn(C/C=C\COc3cccc(OC/C=C\Cn4cnc5c(Cl)nc(Cl)nc54)c3)c2n1 = > 100 µM
3. NCCNS(=O)(=O)c1ccc(N)cc1 = > 100 µM

[ask] Recorded TGI for Cc1nc(-c2nc(C)c(C(=O)/C=C/c3ccc([N+](=O)[O-])cc3)s2)sc1C(=O)/C=C/c1ccc([N+](=O)[O-])cc1 , please?
[reply] > 100 µM

[ask] // next record CNS(=O)(=O)NNS(=O)(=O)c1cccc([N+](=O)[O-])c1
[reply] > 100 µM

[ask] // next record COC1=CC(=O)[C@]2(C)[C@H](C1=O)C(C)[C@H]2c1ccc(OC)cc1 (stereo not given in full)
[reply] > 100 µM

[ask] // next record C/C(=C1\SC(=NCc2cccs2)NC1=O)c1ccc2ncccc2c1
[reply] > 25 µM

[ask] // next record CCOc1ccccc1N1C(=O)C(=O)C(c2nc3ccccc3s2)C(=O)C1=O
[reply] > 100 µM

---

# key: entry, value: GI50
Tested on: HCT-15 colon
test method notes: NCI tumour cell line growth inhibition, 48 h

Illustrative cases are given below, each with its answer.
1. O=C1/C(=C\c2ccc(Cl)cc2)CCOc2c1ccc1ccccc21 = 14.9 µM
2. O=C1NC(=NCc2ccccc2Br)S/C1=C\c1ccc2ncccc2c1 = 4.36 µM
3. Cn1cc(C2=C(Oc3ccccc3)C(=O)NC2=O)c2ccccc21 = > 25 µM

[ask] Recorded GI50 for CS(=O)(=O)CCN(CC#N)Cc1ccc(-c2ccc3ncnc(Nc4ccc(OCc5cccc(F)c5)c(Cl)c4)c3c2)o1 , please?
[reply] 10.2 µM

[ask] // next record COc1ccc(C2C(C#N)=C(N)Oc3c2sc2c(F)cccc32)cc1 (centres undefined)
[reply] 1.73 µM

[ask] // next record NC1CCCCC1N.O=C([O-])c1cc(S(=O)(=O)Nc2cc(S(=O)(=O)[O-])cc3cc(S(=O)(=O)[O-])cc(O)c23)ccc1[O-].[Pt+4]
[reply] > 100 µM

---

Test system: NCI/ADR-RES ovarian
test method notes: NCI tumour cell line growth inhibition, 48 h; in the data active = GI50 below about 0.43 µM; inactive = the rest
Please answer using one outcome listed in 1 (active), -1 (inactive)

Check out these entries, answers already filled in.
1) CCN(CC)c1ccc(/C=N/NC(=O)c2ccc(S(C)(=O)=O)cc2)c(O)c1 = -1
2) O=C1C(Br)=CC2C1C1C3CCC3C2(Br)C12OCCO2 (stereo not drawn) = -1
3) O=c1[nH]cnc2c1ccn2C1OC(CO)C(O)C1O (stereo not drawn) = -1

[ask] Kindly provide the recorded test outcome for the following molecule: CN1CCN(c2ccc3[nH]c(C4=C(O)c5nc(CCl)n(C)c5C(=O)C4=O)nc3n2)CC1
[reply] -1

[ask] // next record C[C@H]1CCC/C=C/[C@@H]2C[C@H](O)C[C@H]2[C@H](O)[C@@H](S(=O)C[C@@H](N)C(=O)O)CC(=O)O1 (stereo partly drawn)
[reply] 1

[ask] // next record COc1cc(-c2cc(/C=C3\C(=O)Nc4cc(Cl)ccc43)[nH]n2)cc(OC)c1OC
[reply] -1

[ask] // next record Cc1c2c(nn1-c1ccc(S/N=C3\SCC(=O)CN3Cc3ccccc3)cc1)-c1ccccc1CC2
[reply] -1

[ask] // next record Clc1ccc(CNc2ccc3nc(CCC4CCCCC4)[nH]c3c2)cc1
[reply] -1

---

Tested on: MALME-3M melanoma
test method notes: NCI tumour cell line growth inhibition, 48 h
# key: entry, value: TGI
Please reply with the bare figure in µM and do not write the unit itself.

Illustrative cases are given below, each with its answer.
1) CCOC(=O)c1c(SC(=O)C(C)(C)Oc2ccc(Cl)cc2)n(-c2ccccc2)c(=S)n(-c2ccccc2)c1=O = 72.7
2) O=C1C(Br)=CC2C1C1C3CCC3C2(Br)C12OCCO2 (stereo not given) = 21.3
3) O=C(OCc1nc2nc(Cl)nc(N3CCOCC3)c2[nH]1)n1ccnc1 = 3.22
4) Brc1ccc(-c2[nH]c3ccccc3c2N=Nc2ccccc2)cc1 = 36.1
5) O=C(CC1C(=O)Nc2ccccc2S1(=O)=O)Nc1cc(Cl)ccc1Cl (stereo not given) = 40.6
6) COc1cc2c(/C=C3\C(=O)N(C)c4ccc(O)cc43)c[nH]c2cc1C = 7.08
7) O=C(/C=C/c1cccs1)c1ccc(Cl)cc1Cl = 19.8

Now take the following compound into account.
[ask] Recorded TGI for CCCc1cn2c(/C=N/N=C(N)N)c(-c3c(OC)ccc(OC)c3[N+](=O)[O-])nc2s1 , please?
[reply] 30

---

System: MDA-MB-435
Please answer using one outcome listed in 1.0 (active), 0.0 (inactive)

1. CCC(=O)c1c(C(F)(F)F)n([O-])c2cc(N3CCNCC3)c(F)cc2[n+]1=O = 0.0
2. CC(=O)OCc1cnc2c3c(nc4ccccc4c13)C(=O)c1cccnc1-2 = 1.0
3. Cc1ncc(C(=O)Nc2ccc(CN3CCN(C)CC3)c(C(F)(F)F)c2)cc1C#Cc1c(N)ncc2ccc(F)cc12 = 1.0

[ask] Kindly provide the recorded test outcome for the following compound: O=C(OCc1nc2nc(Cl)nc(N3CCOCC3)c2[nH]1)n1ccnc1
[reply] 0.0

[ask] // next record COc1ccccc1-c1cc(=O)c2c(C)ccnc2[nH]1
[reply] 0.0

[ask] // next record CCn1c(-c2nonc2N)nc2c(C#CC(C)(C)O)nc(CN3CCCC3)cc21
[reply] 0.0

[ask] // next record C/C(=C1\SC(=NCc2cccs2)NC1=O)c1ccc2ncccc2c1
[reply] 0.0

[ask] // next record Cn1cc(C2=C(Oc3ccccc3)C(=O)NC2=O)c2ccccc21
[reply] 0.0

[ask] // next record COc1cc(-c2cc(/C=C3\C(=O)Nc4cc(Cl)ccc43)[nH]n2)cc(OC)c1OC
[reply] 0.0

[ask] // next record CS(=O)(=O)CCN(CC#N)Cc1ccc(-c2ccc3ncnc(Nc4ccc(OCc5cccc(F)c5)c(Cl)c4)c3c2)o1
[reply] 0.0
